Entries and their measured Activity follow.
Tested on: Syrian golden hamster
Method Description: Protective effect against ischemia/reperfusion-induced microvascular damages in golden hamster assessed as number of leakage site per cm^2 at 3 mg/kg, po after 15 mins by cheek pouch assay
Format: functional, Mesocricetus auratus

Structure As Smiles: COc1cc(/C=[N+](/[O-])C(C)(C)C)ccc1O
Readout Unit: leakage sites/cm2
Activity: 85
--
Structure As Smiles: CC(C)(C)/[N+]([O-])=C\c1ccco1
Readout Unit: leakage sites/cm2
Activity: 33
--
Structure As Smiles: CN(C)c1ccc(/C=[N+](/[O-])C(C)(C)C)cc1
Readout Unit: leakage sites/cm2
Activity: 55
--
Structure As Smiles: CC(C)(C)/[N+]([O-])=C\c1ccc([N+](=O)[O-])cc1
Readout Unit: leakage sites/cm2
Activity: 78
--
Structure As Smiles: CC(C)(C)/[N+]([O-])=C\c1ccc2c(c1)OCO2
Readout Unit: leakage sites/cm2
Activity: 38
--
Structure As Smiles: CC(C)(C)/[N+]([O-])=C/c1cc2c(cc1Br)OCO2
Readout Unit: leakage sites/cm2
Activity: 109
--
Structure As Smiles: COc1cc(/C=[N+](/[O-])C(C)(C)C)ccc1OCc1ccccc1
Readout Unit: leakage sites/cm2
Activity: 35
--
Structure As Smiles: CC(C)(C)/[N+]([O-])=C\c1cccnc1
Readout Unit: leakage sites/cm2
Activity: 60

---

Catalogue of compounds with associated logP
Method Description: Partition coefficient, log P of the compound
Format: physicochemical
Condition Label: octanol/water

Structure As Smiles: CN(C)c1ccc(/C=[N+](/[O-])C(C)(C)C)cc1
logP: 1.73

Structure As Smiles: CC(C)(C)/[N+]([O-])=C/c1cc2c(cc1Br)OCO2
logP: 1.69

Structure As Smiles: COc1cc(/C=[N+](/[O-])C(C)(C)C)ccc1OCc1ccccc1
logP: 2.68

Structure As Smiles: CC(C)(C)/[N+]([O-])=C\c1ccco1
logP: 1.1

Structure As Smiles: CC(C)(C)/[N+]([O-])=C\c1ccc2c(c1)OCO2
logP: 0.57

Structure As Smiles: CC(C)(C)/[N+]([O-])=C\c1cccnc1
logP: 0.21

Structure As Smiles: COc1cc(/C=[N+](/[O-])C(C)(C)C)ccc1O
logP: 1.58

Structure As Smiles: CC(C)(C)/[N+]([O-])=C/c1ccccc1
logP: 1.5

Structure As Smiles: CC(C)(C)/[N+]([O-])=C\c1ccc([N+](=O)[O-])cc1
logP: 1.39
